Listed below: phage ELISA signal ratio values for each entry.
- Measured target: NXF1 565-619 TAP_C (domain begin residue: 565, domain end residue: 619)
- Experimental details: phage ELISA signal ratio (GST-PRM binding over GST background); higher = stronger binding of peptide-phage to the PRM
No unit in the answer, please; the number alone is enough.

• MAGPESLNFSWDYIMN = 13.4
• GIPYPDFNWENISTLV = 6.41
• EIEEFSFTWQPEWEVR = 8.54

Q: Quick one: phage ELISA signal ratio for `DIPFSFQWSTDMHPVS` ?
A: 6.7
